- System: PAK3
- Settings: concentration: 1 μM,replicates: in singlicate; n = 1;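 further: KINOMEscan kinase panel screen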
Property Name: %Inh (%)
Express your answer in %, writing the number without its unit.

Consider the molecule Cc1nnc(-c2ccc3occ(-c4ccc(S(C)=O)cc4)c3n2)o1 (stereo not drawn) and give its measured %Inh. 0

* * *

- System: ACVR2B
- Settings: concentration: 1 μM,replicates: in singlicate; n = 1
Property Name: %Inh (%)
Report as a plain number; the unit % is understood.

// lookup %Inh for CN(c1ccc2c(c1)nc(NCc1ccc(F)cc1)n2C)c1ccnc(Nc2ccc(CS(C)(=O)=O)cc2)n1.Cl [GW813244] 0

* * *

- Tested on: PRKCQ
- Settings: concentration: 1 μM,replicates: in singlicate; n = 1
Mark t for %Inh under 20%, f if at or over.

Record excerpt, results attached:
> print(dat)
                                   compound  target.desc  class.assignment
1  CN(c1cccc(CNc2nc(Nc3ccc4c(c3)CC(=O)N4)ncc2C(F)(F)F)c1)S(C)(=O)=O        PRKCQ                 f
2  CSc1nccc(-c2c(-c3ccc(F)cc3)ncn2CCCN2CCOCC2)n1.Cl        PRKCQ                 t
3  COc1cc(Nc2nccc(N3CCC(NC(=O)c4cccc(C#N)c4)C3)n2)cc(OC)c1OC (stereo not drawn)        PRKCQ                 t

Turning to the following compound.
Given C[C@@H]1CNc2c(sc3ccc4nc(-c5ccc(O)cc5)ccc4c23)C(=O)N1 , is recorded %Inh strictly lower than 20%? f

* * *

Below, each entry is listed alongside its reported %Inh.
- System: ADCK3
- Construct: gene CABC1
- Settings: concentration: 1 μM,replicates: in singlicate; n = 1
Write the answer as a number in %, unit excluded.

Recorded %Inh, per entry:
> print(dat)
                                   compound  property.name  numeric.readout
1  CCn1c(-c2nonc2N)nc2cncc(CNC3CCNCC3)c21.Cl           %Inh                1
2  COc1cc2c(Nc3ccc(NC(=O)c4ccccc4)cc3)ncnc2cc1OCCCN1CCOCC1           %Inh               10

Which %Inh reading was recorded for the compound Cc1nnc(-c2ccc3occ(-c4ccc(S(C)=O)cc4)c3n2)o1 (stereo not drawn) ? 2

* * *

- Tested on: TNNI3K
- Settings: concentration: 1 μM,replicates: in singlicate; n = 1
Threshold check on %Inh: at or above 8% gives Y, strictly below gives N.

Is %Inh for COc1cc2ncn(-c3cc(OCC4CCCCC4)c(C(N)=O)s3)c2cc1OC [GSK204559] at or above 8%? N

Tell me whether %Inh is at least 8% here: CN(c1cccc(CNc2nc(Nc3ccc4c(c3)CC(=O)N4)ncc2C(F)(F)F)c1)S(C)(=O)=O N

Determine whether measured %Inh meets or exceeds 8% for C[C@@H](Oc1cc(-n2cnc3cc(-c4ccncc4)ccc32)sc1C(N)=O)c1ccccc1Cl [GSK479719] Y

// inclusive: %Inh at least 8%? input: Cn1ccc2ncnc(Oc3ccc(NC(=O)Nc4ccnc(C(F)(F)F)c4)c(Cl)c3)c21 Y

Say whether Cl.Cl.NC[C@H](CC1CCCCC1)NC(=O)c1ccc(-c2ccnc3[nH]ccc23)s1 [GSK1581428] shows %Inh of 8% or more. N

Would you say Cc1n[nH]c2cc(Nc3ccnc(Nc4cccc(CN5CCOCC5)c4)n3)ccc12 [GW682569] shows %Inh at minimum 8%? Y

* * *

- System: PAK4
- Settings: concentration: 1 μM,replicates: in singlicate; n = 1
Response field label: string, one of t (%Inh strictly below 1%) or f.

Field: example entries. Status: answers known.
> print(dat)
                                   molecule  class.assignment
1  Cn1ccc2ncnc(Oc3ccc(NC(=O)Nc4cc(C(C)(C)C)on4)c(Cl)c3)c21                 f
2  COc1cc(Nc2nccc(N3CCC(NC(=O)c4cccc(C#N)c4)C3)n2)cc(OC)c1OC (centres unmarked)                 t

Given Cc1n[nH]c2cc(Nc3ccnc(Nc4cccc(CN5CCOCC5)c4)n3)ccc12 , is recorded %Inh strictly lower than 1%? f

In plain terms, does COc1cccc(OC)c1C(=O)Nc1cccc(-c2nn3ccccc3c2-c2ccnc(Nc3cccc(F)c3)n2)c1 come in under 1% for %Inh? f

hey, is %Inh for Cc1ccc2c(-c3ccnc(Nc4ccc(C(F)(F)F)cc4)n3)cnn2n1 lower than 1% or not? t

Identify whether the molecule CN1CCN(CCNc2nc3cc(Oc4ccc(NC(=O)Nc5cc(C(F)(F)F)ccc5F)cc4)ccc3[nH]2)CC1.Cl.Cl records %Inh below 1%. f

Hello, I'm reviewing records and need to know if %Inh of CC(C)S(=O)(=O)N1CCN(Cc2ccc3c(c2)nc(NC(=O)c2ccsc2)n3C[C@H](O)c2ccccc2)CC1 is below 1%. Could you check? f

* * *

- System: CDK9
- Settings: concentration: 1 μM,replicates: in singlicate; n = 1
Measured %Inh, listed per entry.
Value expressed in %; do not type the unit.

# annotated cases, reported %Inh shown
> print(dat)
                                   compound  property.name  measurement.units  numeric.readout
1  Cn1ccc2ncnc(Oc3ccc(NC(=O)Nc4cc(C(C)(C)C)on4)c(Cl)c3)c21           %Inh                  %                6
2      Cn1cc(-c2cccc3c(N)c(C(N)=O)nnc23)cn1           %Inh                  %                0
3  Cc1ccn2nc(-c3ccc(F)cc3)c(-c3ccncc3)c2c1.Cl [GW457859]           %Inh                  %                0
4  CS(=O)c1ccc(-c2coc3ccc(-c4n[nH]c(=O)o4)cc23)cc1 (stereo not drawn)           %Inh                  %                0

Which %Inh value is on record for Cl.c1ccc(Oc2ccc(Nc3ccnc4cc(-c5ccc(CN6CCNCC6)o5)ccc34)cc2)nc1 [GW567142] ? 0

# query: %Inh of entry CN1CCN(CCNc2nc3cc(Oc4ccc(NC(=O)Nc5cc(C(F)(F)F)ccc5F)cc4)ccc3[nH]2)CC1.Cl.Cl [GW768504] 0

%Inh lookup needed for CCN1CCN(CCCC(=O)Nc2n[nH]c3nc(-c4ccc(O)cc4)c(Br)cc23)CC1 [SB-731579] , thanks. 0

# lookup: %Inh of O=c1[nH]cc(-c2ccc(O)cc2)c2sc(-c3ccncc3)cc12 [GSK1033723] 6

May I ask what %Inh has been recorded for CC(C)c1nc(-c2cccc(NS(=O)(=O)c3ccccc3)c2)c(-c2ccnc(Nc3ccc4c(c3)CN(C)CC4)n2)s1 [GSK1649598] ? 60

Any idea what its %Inh is? The compound is CN1CCN(CCCNc2nccc(-c3c(-c4ccc(F)cc4)nn4cc(C(N)=O)ccc34)n2)CC1 [GW622475] 3

Please look up its %Inh: Cc1cccc2c(-c3ccncc3)c(-c3ccc(F)cc3)nn12.Cl [GW461487] 0

Fill in the blank: the reported %Inh of O=C(Nc1ccc(Oc2ccc3nc(NC(=O)C4CC4)cn3n2)c(F)c1)c1cccn(-c2ccccc2)c1=O is ____. 6

# query: %Inh of entry C[C@@H]1CNc2c(sc3ccc4nc(-c5ccncc5)ccc4c23)C(=O)N1 44

# %Inh lookup, item Cn1ccc2ncnc(Oc3ccc(NC(=O)Nc4ccnc(C(F)(F)F)c4)c(Cl)c3)c21 0

Requested read-out: %Inh. Entry: Cc1cccc(-c2nc(Nc3ccncc3)c3sccc3n2)n1 [GW869641] 11

Any idea what its %Inh is? The compound is O=C1NCCc2[nH]c(-c3ccncc3)cc21 97.9

I'd like to know its %Inh. The compound in question is CCn1c(-c2nonc2N)nc2cncc(Br)c21 [SB-738004] 4

Find the recorded %Inh belonging to CN(c1cccc(CNc2nc(Nc3ccc4c(c3)CC(=O)N4)ncc2C(F)(F)F)c1)S(C)(=O)=O and report it. 6

* * *

- Test system: ERBB2
- Settings: concentration: 1 μM,replicates: in singlicate; n = 1
Property Name: %Inh (%)
Give the value, in units of %, as a plain number.

Please review the following examples before continuing.
> print(dat)
                                   compound  measurement.units  numeric.readout
1  CN(c1ccc2c(c1)nc(NCc1ccc(F)cc1)n2C)c1ccnc(Nc2ccc(CS(C)(=O)=O)cc2)n1.Cl [GW813244]                  %               17
2  Cl.Nc1n[nH]c2cc(-c3ccccn3)ccc12 [GSK2189892]                  %                9
3  CN1CCN(CCCNc2nccc(-c3c(-c4ccc(F)cc4)nn4cc(C(N)=O)ccc34)n2)CC1 [GW622475]                  %               24
4  Cc1ccn2nc(-c3ccc(F)cc3)c(-c3ccncc3)c2c1.Cl [GW457859]                  %               64

Consider the additional compound presented here.
Which %Inh value is on record for O=C(NCC1CC1)c1ccc(-c2cc(C(=O)NC3CC3)ccc2F)cc1 [GW810445] ? 11
